Value source: patent US20220142941A1

Tested on: GS323peri
Test: DBD dose-response IC50, patient derived GSC culture
Assay type: cell-based
Conditions: Homo sapiens, 120 h, passage 17, day 5, read-out: IC50 5 d

SMI	IC50 [µM]
O[C@H]([C@H](O)[C@@H](O)CBr)[C@H](O)CBr	4.75

###

System: GS289
Assay: DBD dose-response IC50, patient derived GSC culture
Assay type: cell-based
Conditions: Homo sapiens; GS289, passage 13, day 8; read-out: IC50 8 d
pIC50: −log10 of the molar value.
MEASUREMENT_KIND: pIC50

SMI	SUBJECT_OF_TEST	EXPERIMENTAL_VALUE
O[C@H]([C@H](O)[C@@H](O)CBr)[C@H](O)CBr	GS289	5.49

###

Test system: GS359
Test: DBD dose-response IC50, patient derived GSC culture
Type: cell-based
Conditions: Homo sapiens, 120 h; GS359, passage 14, day 5; read-out: IC50 5 d

SMI	DISPLAY_UNIT	IC50
O[C@H]([C@H](O)[C@@H](O)CBr)[C@H](O)CBr	µM	11.8

###

Tested on: GS245
Test: DBD dose-response IC50, patient derived GSC culture
Assay type: cell-based
Conditions: Homo sapiens; GS245, passage 13, day 8; read-out: IC50 8 d
pIC50: −log10 of the molar value.
MEASUREMENT_KIND: pIC50

SMI	EXPERIMENTAL_VALUE
O[C@H]([C@H](O)[C@@H](O)CBr)[C@H](O)CBr	5.47

###

System: GS249
Experiment: DBD dose-response IC50, patient derived GSC culture
Type: cell-based
Conditions: Homo sapiens; GS249, passage 18, day 8; read-out: IC50 8 d

SMI	IC50 / nM
O[C@H]([C@H](O)[C@@H](O)CBr)[C@H](O)CBr	240
